# TEST_TARGET: OXA-48:P68A (Klebsiella pneumoniae, UniProt Q6XEC0, P68A)
# Sequence (Q6XEC0 23-265 P68A): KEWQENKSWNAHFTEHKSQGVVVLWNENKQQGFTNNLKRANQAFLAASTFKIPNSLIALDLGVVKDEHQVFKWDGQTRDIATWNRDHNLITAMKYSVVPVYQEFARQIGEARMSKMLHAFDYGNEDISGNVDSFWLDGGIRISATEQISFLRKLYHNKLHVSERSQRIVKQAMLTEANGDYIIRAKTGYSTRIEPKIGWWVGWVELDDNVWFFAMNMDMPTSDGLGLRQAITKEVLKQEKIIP
# ASSAY_INFO: Steady-state enzyme kinetics, OXA-48:P68A
# Type: biochemical
# CONDITIONS_USED: substrate hydrolysis; 25°C, pH 7.0; error = 95% CI
Output yes for kcat not less than 20 s⁻¹; output no otherwise.

Example entries begin here.
[
  {
    "COMPOUND": "CO/N=C(\\C(=O)N[C@@H]1C(=O)N2C(C(=O)[O-])=C(C[N+]3(C)CCCC3)CS[C@H]12)c1csc(N)n1 [FEP, cefepime]",
    "CLASS_ASSIGNMENT": "no"
  },
  {
    "COMPOUND": "CC(C)(O/N=C(\\C(=O)N[C@@H]1C(=O)N2C(C(=O)[O-])=C(C[n+]3ccccc3)CS[C@H]12)c1csc(N)n1)C(=O)O",
    "CLASS_ASSIGNMENT": "yes"
  },
  {
    "COMPOUND": "CC1(C)S[C@@H]2[C@H](NC(=O)[C@H](N)c3ccccc3)C(=O)N2[C@H]1C(=O)O",
    "CLASS_ASSIGNMENT": "yes"
  },
  {
    "COMPOUND": "C[C@@H](O)[C@H]1C(=O)N2C(C(=O)O)=C(SCCN=CN)C[C@H]12",
    "CLASS_ASSIGNMENT": "no"
  }
]

Read the next record carefully.
# input Form field: kcat at least 20 s⁻¹? Entry: O=C(Cc1cccs1)N[C@@H]1C(=O)N2C(C(=O)O)=C(/C=C/c3ccc([N+](=O)[O-])cc3[N+](=O)[O-])CS[C@H]12
# output yes
